The measurements presented in this section are drawn from paper PMC4475474.

biological target: Full-length human SAMHD1 (Homo sapiens, UniProt Q9Y3Z3); assay: Enzyme-coupled malachite green; type: biochemical
Sequence (Q9Y3Z3 whole entry): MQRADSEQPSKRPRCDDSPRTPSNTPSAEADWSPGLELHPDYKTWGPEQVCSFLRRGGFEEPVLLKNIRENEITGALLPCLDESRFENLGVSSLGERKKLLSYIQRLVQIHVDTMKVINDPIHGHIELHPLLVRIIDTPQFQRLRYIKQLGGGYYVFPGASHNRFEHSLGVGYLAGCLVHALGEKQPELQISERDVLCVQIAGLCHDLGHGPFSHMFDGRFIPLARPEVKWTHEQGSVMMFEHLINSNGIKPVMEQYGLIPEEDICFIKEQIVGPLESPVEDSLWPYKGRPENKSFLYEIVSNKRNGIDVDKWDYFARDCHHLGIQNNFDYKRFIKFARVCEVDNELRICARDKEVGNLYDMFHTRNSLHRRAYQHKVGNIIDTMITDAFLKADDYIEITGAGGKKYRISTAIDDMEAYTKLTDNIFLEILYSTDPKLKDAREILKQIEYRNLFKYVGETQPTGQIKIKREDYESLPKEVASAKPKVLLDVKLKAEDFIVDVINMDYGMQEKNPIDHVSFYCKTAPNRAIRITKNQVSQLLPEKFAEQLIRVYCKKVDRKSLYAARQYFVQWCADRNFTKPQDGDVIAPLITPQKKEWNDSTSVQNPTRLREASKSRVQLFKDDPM
quantityMeasured: pIC50
One number for each entry, as −log10 of the molar value.

Request: Find the recorded pIC50 belonging to Nc1nc2c(ncn2[C@H]2C[C@H](O)[C@@H](CO)O2)c(=O)[nH]1 and report it.
Result: 3.31

###

target: Full-length human SAMHD1 (Homo sapiens); assay: Enzyme-coupled malachite green; type: biochemical; settings: MG assay dose-response; 0.5 μM SAMHD1, 5 μM PPase, 0.1 mM dGTP, 5 mM MgCl2
quantityMeasured: pIC50
One number for each entry, as −log10 of the molar value.

Request: Lab note: need pIC50 with Full-length human SAMHD1 (Homo sapiens) for entry [Cl-].[Cl-].[Zn+2] , please look it up.
Result: 5.68
